Parameter protein stability index: see the listing below.
- Assay Remarks: protein stability index of a GFP-peptide fusion (GPS, HEK-293T) (PSI 1-6); higher = more stable;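 further: 24-mer peptide tiles fused after GFP, lentivirally expressed, FACS-sorted into six equal bins by GFP/DsRed ratio, decoded by Illumina sequencing, PSI is the read-weighted mean bin number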
- Applied Conditions: treatment: DMSO; c terminus: a fixed tail appended
Could you keep your reply to the number by itself?

Sample records with protein stability index:
>>> data_value("EYVEKETQEKKRLSRTNEELLWKL [MTUS2]")
4.04
>>> data_value("KKAEQKKKEKIIEDKTFGLKNKKG [ZC3H15]")
4.8
>>> data_value("HSRKTVLIKTIETRNGEVVTESQK [PRPH]")
4.71

Query protein stability index for PAQLSCLPYLEHVGHNHTYNMAPS [NFE2L1] 2.91

Return the recorded protein stability index value; entry: EQLLVLVEWAKYIPAFCELPLDDQ [HNF4A] 2.57

* * *

- Assay Remarks: protein stability index of a GFP-peptide fusion (GPS, HEK-293T) (PSI 1-6); higher = more stable
- Applied Conditions: treatment: DMSO; c terminus: a fixed tail appended
Quantity Name: protein stability index
Answer with a number only.

>>> data_value("EPKLHTPMYFFLGNLSVLDVGCIS [OR3A1]")
2.7
>>> data_value("FQKGQVTRDGFKLVMASLYHIYVA [HMOX1]")
2.83
>>> data_value("LHAPPAFYSTSSGLANGLQLLCPW [VENTX]")
2.32

Give recorded protein stability index. LPATLVMTVPATAIYFTAYDQLKA [SLC25A39] 3.02

Fill in protein stability index for record KPPQNPVDTYDVQVTAPGAPPLQA [TNXB] 4.84

Assign protein stability index to the following record: EVHRLIEGKAPIISGVTKAISSPT [TPPP] 3.42

Complete the entry with protein stability index for RAVRDRNLLRDDRVLQNLLTIEER [CCND2] 3.91

Give protein stability index for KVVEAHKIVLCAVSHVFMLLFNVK [RHOBTB3] 2.81

Query protein stability index for FEFLYNALEFWRQEELTRINQSFT [IQUB] 2.13

Tell me measured protein stability index for KFIKPWESPDEMELDELLKEISRK [PTPRD] please. 2.32

# return recorded protein stability index for entry AESSVPPVTSIGIDNLGLKLEENL [SLC35F2] 4.97

* * *

- Assay Remarks: protein stability index of a GFP-peptide fusion (GPS, HEK-293T) (PSI 1-6); higher = more stable
- Applied Conditions: treatment: DMSO; c terminus: a fixed tail appended
Quantity Name: protein stability index

>>> data_value("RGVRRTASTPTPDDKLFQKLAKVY [CPN1]")
2.61
>>> data_value("SSTSYRRTFGPPPSLSPGAFSYSS [PRPH]")
3
>>> data_value("VAKLQESQPGNAVIDKETIDLLAF [SDE2]")
2.98
>>> data_value("AQRRRMDEISDHAKVLTLSDDLER [EIF5]")
4.98
>>> data_value("EDMLLPLAWRIVNDTYRTDLCLLY [CCNC]")
2.76

Find the measured protein stability index of TIRLNISDVNDNAPRFNQQLYTAY [PCDHGC5] and report it. 2.41

Supply recorded protein stability index for SPKELKRRNSSSSMSSRLSIYDNV [DLC1] here. 3.92

Write down protein stability index measured for item SENCPKVISCEFAHNSNWYITFQS [LARP4] 2.21

Answer with the recorded protein stability index of KVLGELNILPNTQKVTCFYQPAPY [TENT5D] only. 2.5

Tell me measured protein stability index for ISFDRYYKIVKPLWTSFIQSVSYS [P2RY14] please. 3.63

# return recorded protein stability index for entry AEPGALGEPGAAAPAMYDDESAID [CEBPD] 5.6

Fill in protein stability index for record LFPVFLATDYLRYKPVVLLQGLSL [SLC19A2] 2.88

* * *

- Assay Remarks: protein stability index of a GFP-peptide fusion (GPS, HEK-293T) (PSI 1-6); higher = more stable
- Applied Conditions: treatment: MLN4924 1 uM, 8 h; c terminus: a fixed tail appended
Each entry below carries its recorded protein stability index.
Give the value as a plain number.

Guide cases for protein stability index, answers given:
>>> data_value("PQTRSGPECGLAKKPPEESTCFER [ADAMTSL2]")
5.08
>>> data_value("TEMAASSQGNFEGNFESLDLAEFA [FUNDC2]")
5.1
>>> data_value("GGGDEDGSLGSRAEPAPRAREGGG [SMAD6]")
5.51
>>> data_value("LSQAGQKTSAALSTVGSAISRKLG [TPD52L2]")
3.92

Could you please provide reported protein stability index for MWVRFRAFEAARDLDACALVRGHR [ZSWIM9] ? Thanks! 2.06

Using the record for GGGMRVCGFGGGAGSVFGGGFGGG [KRT15] , state its measured protein stability index. 1.94

Report protein stability index, nothing else, for this sequence: GGKGHHLPSENLGKEPLDPDPSHS [TOR1AIP2] 5.15

* * *

- Assay Remarks: protein stability index of a GFP-peptide fusion (GPS, HEK-293T) (PSI 1-6); higher = more stable
- Applied Conditions: treatment: DMSO; c terminus: a fixed tail appended
Measured protein stability index, listed per entry.
# answer = number (no unit)

>>> data_value("DRFQVPTTEVNAWLVHRDPEGSVS [NFE2L1]")
3.84
>>> data_value("VQKSIYSEFLKRFVEATRKWKVGI [ALDH8A1]")
2.75
>>> data_value("MEVQHFRTIYHMFIAGLCVFIIST [SOAT2]")
2.95
>>> data_value("GLVPSEKPPMMPQAQPAIPRPNRL [C2CD2L]")
4.65
>>> data_value("FFVITMIKIVLINSFGAILQGSLF [SLC29A1]")
3.36

Now turn to the next sequence.
Please list protein stability index recorded for the sequence HGLWDSLVYDVEVKSHLLDYVMTT [TRIP13] 2.28

* * *

- Assay Remarks: protein stability index of a GFP-peptide fusion (GPS, HEK-293T) (PSI 1-6); higher = more stable
- Applied Conditions: treatment: DMSO; c terminus: a fixed tail appended
Param threshold (4) applies to protein stability index; output True when value >= threshold, False when value < threshold.

Example entries begin here.
>>> class_name("QAGAARLEEELRQLKEEMARHLRE [PRPH]")
"True"
>>> class_name("QLQPTFTPMRVALAGTFHYYSCER [NSDHL]")
"False"
>>> class_name("VKLGPALTPHIVQYQANKVTHTLT [PPEF2]")
"False"
>>> class_name("AKRLWKVCVEHHTFFRLLLPEAPP [EPB41L3]")
"False"
>>> class_name("NGDDMFVTFAAMQAQQGRSSLVWL [MCOLN1]")
"False"

Answer whether protein stability index of GKELAGTMDGEGTLFQTESPQSGS [PBXIP1] is greater than or equal to 4. True

Does CLDSPGPLDSKENLENPMRRIHSL [CDC25A] have a reported protein stability index of at least 4? True

Given LDKLRNEWASHTAALTNKHSQELT [SASS6] , state whether its protein stability index is at least 4. False

Dear colleague, could you confirm whether DMENKENGSVGVKNSMENGRPPDP [SAMD13] has protein stability index at or above 4? True

hey, is protein stability index for this one >= 4? PRTNQWSPVVAMTSRRSGVGLAVV [KLHL20] False

Given SSQKKDTSSSTVVSTQRSQDHFHV [TIA1] , state whether its protein stability index is at least 4. True

Item YVINWFMSFGPEIKLNTSQQGRNQ [FAM104B] with protein stability index of 4 or above? False

* * *

- Assay Remarks: protein stability index of a GFP-peptide fusion (GPS, HEK-293T) (PSI 1-6); higher = more stable
- Applied Conditions: treatment: MLN4924 1 uM, 8 h; c terminus: a fixed tail appended
Quantity Name: protein stability index
Keep it simple and answer with nothing but the number.

The following sequences have reported results that may help.
>>> data_value("HNRYTENSLRGVILDIHFLSQADF [FUT8]")
2.41
>>> data_value("AYFPYFKKHNVTAVVRLNKKIYEA [CDC14A]")
2.08
>>> data_value("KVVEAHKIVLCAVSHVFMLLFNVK [RHOBTB3]")
3.07
>>> data_value("LDLFGVSMVVPLLSLHVKSLGASP [MFSD9]")
3.02

Answer with reported protein stability index of ISGALLQIKTLLALSCHEQEMVVS [SLC2A12] 2.42

Report measured protein stability index; entry is SPEWDTVTPEAKDLINKMLTINPA [CAMK2D] 4.54

* * *

- Assay Remarks: protein stability index of a GFP-peptide fusion (GPS, HEK-293T) (PSI 1-6); higher = more stable
- Applied Conditions: treatment: MLN4924 1 uM, 8 h; c terminus: a fixed tail appended
Parameter threshold = 3. Response is 1 when protein stability index meets or exceeds it, else 0.

The following sequences have reported results that may help.
>>> class_name("KKAPQPAKPRLAERMTTREKKVLE [HDAC6]")
1
>>> class_name("HSDMAAIVKAMASPESGLEVRDRM [DVL3]")
1
>>> class_name("ASHQQQVLPPRQPSALVPSVTEYR [MYBL2]")
1
>>> class_name("RIIDKPRVIEVLPRGATAAVLAPD [SEPHS2]")
1

State whether the measured protein stability index reaches 3, counting equality as reaching it, for LKPHLEGAAFRDHQLLEPIRDFEA [TRIM29] 1

Exam item: decide whether the reported protein stability index for SRAALVCRKWNQMMYSAELWRYRT [FBXO39] is at least 3. 0

// inclusive: protein stability index at least 3? input: ESFIKAIGVGLGFELQRLEFDLSP [AASDHPPT] 0

Check this sequence for protein stability index at or above 3: EPNTFSPANVDASVMYRKWKESKG [CDC34] 1

Say whether QVKKTTTRWCHIVRDSDSLAESEF [PHTF1] shows protein stability index of 3 or more. 1

Could you tell me if the measured protein stability index of MKAHSFVRENVPRVLNSAKEKSST [SOAT1] reaches 3 or more? 1

Does the sequence EIIELRRTVNALEIELQAQHNLRY [KRT33B] have recorded protein stability index that is 3 or more? 0

Hi team, for FFLFIGVILFSSAVYFAEAEEAES [KCNA1] , is the recorded protein stability index at or above 3? 0

Given the entry EANSSNSQKNEKALTNIQNCMAEK [C8orf76] , answer whether its protein stability index meets or surpasses 3. 1

Could you verify whether the entry APGTGPAQTELLCCLVKMESLEPD [FANCE] shows protein stability index of no less than 3? 1

I'd appreciate it if you could say whether SEGTNLNAPNSLGVSALCAICGDR [HNF4A] has protein stability index at least equal to 3. 1

Does LVAPVLEPGKQERDVYLPAGKWRS [MYORG] have a reported protein stability index of at least 3? 1
